- target.or.test.system: LIGHT without residues 81-84, stably expressed on EL4 cells (EL4-NC-LIGHT)
- assay.procedure: cell-based or functional assay
quantity.measured: IC50, inhibition of IL-8 secretion, HT-29 + EL4-NC-LIGHT cells (pM)
The answer is to be given in pM; state only the numeric part.

Past entries and their recorded results:
3B04_var10 (antibody, V domains shown) VH: QVQLVQSGAEVKKPGASVKVSCKASGYTFTDYEMHWVRQAPGQGLEWIGEIDPETGDTAYSQKFQGRVTLTADKSTSTAYMEFSSLRSEDTAVYYCSRETDYFFDYWGQGTLVTVSS VL: DIQMTQSPSSLSASVGDRVTITCGASENIYGALNWYQQKPGKAPKLLIYGATNLADGVPSRFSGSGSGRDYTLTISSLQPEDFATYYCQNVLTTPWTFGQGTKLEIKR = 40
3B04_var6 (antibody, V domains shown) VH: QVQLVQSGAEVKKPGASVKVSCKASGYTFTDYEMHWVRQAPGQGLEWIGEIDPETGDTAYSQKFQGRVTLTADKSTSTAYMEFSSLRSEDTAVYYCSRETDYFFDYWGQGTLVTVSS VL: DIQMTQSPSSLSASVGDRVTITCGASENIYGALNWYQRKQGKAPKLLIYGATNLADGVPSRFSGSGSGRDYTLTISSLQPEDFATYYCQNVLTTPWTFGQGTKLEIKR = 80

Notebook: 3B04_var2 (antibody, V domains shown) VH: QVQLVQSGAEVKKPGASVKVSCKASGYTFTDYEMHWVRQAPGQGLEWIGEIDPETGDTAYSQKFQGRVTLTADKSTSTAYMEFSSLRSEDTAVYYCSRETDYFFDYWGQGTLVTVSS VL: DIQMTQSPSSLSASVGDRVTITCGASENIYGALNWYQRKQGKAPQLLIYGATNLADGVSSRFSGSGSGRDYTLTISSLQPEDFATYYCQNVLTTPWTFGQGTKLEIKR , IC50, inhibition of IL-8 secretion, HT-29 + EL4-NC-LIGHT cells read as 60
